- TARGET_OR_TEST_SYSTEM: UniProt:P15090
- PROCEDURE_DETAILS: TdF (Temperature Dependence Fluorescence) assay, thermal shift, FABP4
- Assay type: binding
ENDPOINT_NAME: FABP4 TdF Kd

A selection of reference data follows.
O=C(NC1CCCCC1)C1(OCc2cc(=O)n3nc(-c4ccccc4)nc3[nH]2)CCCCC1 : B (0.5 ≦ B < 0.001 μM)
O=c1cc(COc2ccccc2OC(F)(F)F)[nH]c2nc(-c3ccccc3)nn12 : B (0.5 ≦ B < 0.001 μM)
O=c1cc(COc2cccc(Cl)c2)[nH]c2nc(-c3ccccc3)nn12 : B (0.5 ≦ B < 0.001 μM)
CN(CC1(CO)CCC1)C(=O)C1(OCc2cc(=O)n3nc(-c4ccccc4)nc3[nH]2)CCCCC1 : B (0.5 ≦ B < 0.001 μM)
O=c1cc(COc2ccccc2Cl)[nH]c2nc(-c3ccccc3)nn12 : B (0.5 ≦ B < 0.001 μM)
Cc1c(Cl)cccc1OCc1[nH]c2nc(-c3ccccc3)nn2c(=O)c1F : B (0.5 ≦ B < 0.001 μM)
CCc1ccc(OCc2cc(=O)n3nc(-c4ccccc4)nc3[nH]2)cc1 : B (0.5 ≦ B < 0.001 μM)
CN(CCc1cccc(Cl)c1)C(=O)C1(OCc2cc(=O)n3nc(-c4ccccc4)nc3[nH]2)CCCCC1 : B (0.5 ≦ B < 0.001 μM)

get_value(item= CCc1ccc(OCc2cc(=O)n3nc(-c4ccccc4)nc3[nH]2)c(C(C)(C)C)c1 , readout=FABP4 TdF Kd) returns B (0.5 ≦ B < 0.001 μM)

---

- TARGET_OR_TEST_SYSTEM: FABP4 (Homo sapiens, UniProt P15090)
- Sequence (P15090 whole entry, species assumed): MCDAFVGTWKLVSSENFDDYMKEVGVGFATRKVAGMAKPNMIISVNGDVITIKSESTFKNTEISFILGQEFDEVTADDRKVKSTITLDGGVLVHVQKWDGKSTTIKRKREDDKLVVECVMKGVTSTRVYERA
List of Kd values.

Example molecules with recorded Kd:
Cc1c(Cl)cccc1OCc1cc(=O)n2nc(-c3cncnc3)nc2[nH]1 : > 500 nM
O=C(NC1(c2cccc(Cl)c2)CC1)C1(OCc2cc(=O)n3nc(-c4ccccc4)nc3[nH]2)CCCCC1 : ≤ 1 nM
CN(C)C(=O)C1(OCc2cc(=O)n3nc(-c4ccccc4)nc3[nH]2)CCCCC1 : > 500 nM
O=c1cc(COc2ccccc2)[nH]c2nc(-c3ccccc3)nn12 : > 500 nM

Here is the next item to consider.
Please fill in: Kd reported for Cc1c(Cl)cccc1OCc1cc(=O)n2nc(-c3ccccc3Cl)nc2[nH]1 = > 500 nM

---

Values of Kd reported for UniProtKB Q01469 appear below.
Sequence (Q01469 whole entry, species assumed): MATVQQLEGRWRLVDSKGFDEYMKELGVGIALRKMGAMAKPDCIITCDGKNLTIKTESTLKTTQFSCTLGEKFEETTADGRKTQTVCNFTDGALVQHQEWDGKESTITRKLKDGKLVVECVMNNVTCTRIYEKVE

Form field, Kd with UniProtKB Q01469, item O=c1cc(CN2CCc3c(Br)cccc32)[nH]c2nc(-c3ccccc3)nn12 [1-17] : > 0.5 µM

Result for O=c1cc(COc2cccc(Cl)c2C2CC2)[nH]c2nc(-c3ccccc3)nn12 [20-2] , tested on UniProtKB Q01469, Kd: < 0.5 µM

Entry O=c1cc(COc2cccc(Cl)c2C2CCC2)[nH]c2nc(-c3ccccc3)nn12 [26-3] under UniProtKB Q01469 had Kd of < 0.5 µM

Entry O=c1cc(CN2CCc3c(Cl)cccc32)[nH]c2nc(-c3ccccc3)nn12 [6-3] : Kd on UniProtKB Q01469 = > 0.5 µM

---

- TARGET_OR_TEST_SYSTEM: FABP4 (Homo sapiens, UniProt P15090)
- PROCEDURE_DETAILS: TdF (Temperature Dependence Fluorescence) assay, thermal shift, FABP4
- Assay type: binding
ENDPOINT_NAME: FABP4 TdF Kd

Use these answered entries as a reference point.
CN(Cc1cccc(Cl)c1)C(=O)C1(OCc2cc(=O)n3nc(-c4ccccc4)nc3[nH]2)CCCCC1 [48-31] : B (0.5 ≦ B < 0.001 μM)
O=C(NCC1(CO)CCC1)c1c(Cl)cccc1OCc1cc(=O)n2nc(-c3ccccc3)nc2[nH]1 [47-30] : B (0.5 ≦ B < 0.001 μM)
CC1(NC(=O)c2c(Cl)cccc2OCc2cc(=O)n3nc(-c4ccccc4)nc3[nH]2)COC1 [47-47] : B (0.5 ≦ B < 0.001 μM)
O=C(CC1CC1)Nc1c(Cl)cccc1OCc1cc(=O)n2nc(-c3ccccc3)nc2[nH]1 [49-6] : B (0.5 ≦ B < 0.001 μM)
O=C(NC1(c2ccccc2)CC1)C1(OCc2cc(=O)n3nc(-c4ccccc4)nc3[nH]2)CCCCC1 [48-51] : B (0.5 ≦ B < 0.001 μM)
Cn1nccc1NC(=O)c1c(Cl)cccc1OCc1cc(=O)n2nc(-c3ccccc3)nc2[nH]1 [47-2] : B (0.5 ≦ B < 0.001 μM)
O=C(NC1(CO)CCC1)c1c(Cl)cccc1OCc1cc(=O)n2nc(-c3ccccc3)nc2[nH]1 [47-35] : B (0.5 ≦ B < 0.001 μM)
CCc1cccc(C)c1OCc1cc(=O)n2nc(-c3ccccc3)nc2[nH]1 [1-33] : B (0.5 ≦ B < 0.001 μM)

Item: CN(Cc1cc(=O)n2nc(-c3ccccc3)nc2[nH]1)c1cccc(Br)c1 [1-16] | FABP4 TdF Kd: B (0.5 ≦ B < 0.001 μM)

Per the records, this compound ( O=C(NCC1(CO)CC1)c1ccccc1OCc1[nH]c2nc(-c3ccccc3)nn2c(=O)c1Cl [24-16] ) has FABP4 TdF Kd equal to B (0.5 ≦ B < 0.001 μM)

// recorded FABP4 TdF Kd for O=C(NC1(CO)CCCC1)C1(OCc2cc(=O)n3nc(-c4ccccc4)nc3[nH]2)CCCCC1 [48-59] : B (0.5 ≦ B < 0.001 μM)

---

- TARGET_OR_TEST_SYSTEM: FABP4 (Homo sapiens)
- PROCEDURE_DETAILS: TdF (Temperature Dependence Fluorescence) assay, thermal shift, FABP4
- Type: binding
ENDPOINT_NAME: FABP4 TdF Kd

O=C(NC1CCCCC1)c1ccccc1OCc1[nH]c2nc(-c3ccccc3)nn2c(=O)c1Cl : B (0.5 ≦ B < 0.001 μM)
C#CC1(NC(=O)C2(OCc3cc(=O)n4nc(-c5ccccc5)nc4[nH]3)CCCCC2)CCCCC1 : B (0.5 ≦ B < 0.001 μM)
O=C(N1CCc2ccc(Cl)cc21)C1(OCc2cc(=O)n3nc(-c4ccccc4)nc3[nH]2)CCCCC1 : B (0.5 ≦ B < 0.001 μM)
COCC1(CNC(=O)C2(OCc3cc(=O)n4nc(-c5ccccc5)nc4[nH]3)CCCCC2)CC1 : B (0.5 ≦ B < 0.001 μM)

---

- TARGET_OR_TEST_SYSTEM: FABP4 (Homo sapiens)
- PROCEDURE_DETAILS: TdF (Temperature Dependence Fluorescence) assay, thermal shift, FABP4
- Format: binding
ENDPOINT_NAME: FABP4 TdF Kd

In the examples that follow, each entry is paired with its recorded FABP4 TdF Kd.
O=C(NCC1(CO)CCCC1)c1ccccc1OCc1[nH]c2nc(-c3ccccc3)nn2c(=O)c1Cl : B (0.5 ≦ B < 0.001 μM)
Nc1c(Cl)cccc1OCc1cc(=O)n2nc(-c3ccccc3)nc2[nH]1 : B (0.5 ≦ B < 0.001 μM)
COCc1c(Cl)cccc1OCc1cc(=O)n2nc(-c3ccccc3)nc2[nH]1 : B (0.5 ≦ B < 0.001 μM)
O=C(NC1(CO)CCCCC1)c1c(Cl)cccc1OCc1cc(=O)n2nc(-c3ccccc3)nc2[nH]1 : B (0.5 ≦ B < 0.001 μM)
O=c1cc(CN2CCc3c(Br)cccc32)[nH]c2nc(-c3ccccc3)nn12 : B (0.5 ≦ B < 0.001 μM)

Lab note: O=C(NCCC1CC1)c1ccccc1OCc1[nH]c2nc(-c3ccccc3)nn2c(=O)c1Cl gave FABP4 TdF Kd of B (0.5 ≦ B < 0.001 μM)

Please fill in: FABP4 TdF Kd reported for O=C(Nc1cc(C2CC2)n[nH]1)c1c(Cl)cccc1OCc1cc(=O)n2nc(-c3ccccc3)nc2[nH]1 = B (0.5 ≦ B < 0.001 μM)

For COc1ccccc1C1(CNC(=O)c2c(Cl)cccc2OCc2cc(=O)n3nc(-c4ccccc4)nc3[nH]2)CC1 the compound record lists FABP4 TdF Kd as B (0.5 ≦ B < 0.001 μM)

// FABP4 TdF Kd lookup, compound = O=c1cc(COc2cccc3c2CCC3)[nH]c2nc(-c3ccccc3)nn12 , result: B (0.5 ≦ B < 0.001 μM)

response.value for COc1cc(OC)cc(OCc2cc(=O)n3nc(-c4ccccc4)nc3[nH]2)c1 (field: FABP4 TdF Kd) = B (0.5 ≦ B < 0.001 μM)

Summary for this compound, O=C(NC1(c2ccccc2F)CC1)C1(OCc2cc(=O)n3nc(-c4ccccc4)nc3[nH]2)CCCCC1 : FABP4 TdF Kd is B (0.5 ≦ B < 0.001 μM)

Item: CCc1ccc(OCc2cc(=O)n3nc(-c4ccccc4)nc3[nH]2)c(OC)c1 | FABP4 TdF Kd: B (0.5 ≦ B < 0.001 μM)

For reference, reported FABP4 TdF Kd for Cc1c(Cl)cccc1OC(C)c1cc(=O)n2nc(-c3ccccc3)nc2[nH]1 (centres unmarked) [37-5] stands at B (0.5 ≦ B < 0.001 μM)

Data origin, for the record: patent US8815875B2
